B1: TPR 5TU (parent)
chain: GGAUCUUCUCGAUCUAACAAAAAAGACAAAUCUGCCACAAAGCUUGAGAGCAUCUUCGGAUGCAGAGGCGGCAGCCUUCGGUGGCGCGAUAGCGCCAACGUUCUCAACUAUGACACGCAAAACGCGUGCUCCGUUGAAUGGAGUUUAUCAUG

# Variants of: B1
# PROTOCOL DESCRIPTION: polymerase ribozyme fitness, log enrichment relative to wild type (log ratio); higher = more active; in vitro selection for triplet polymerase activity
Fewer inactive variants are shown than the library holds.
Binary classification by polymerase ribozyme fitness (log ratio), with -3 as an inclusive lower bound for MET; all other cases are NOT MET.

- VARIANT ANNOTATION: "U102C C114G"
  ASSIGNED CLASS: "NOT MET"
- VARIANT ANNOTATION: "G62C C72U C85U C108U"
  ASSIGNED CLASS: "NOT MET"
- VARIANT ANNOTATION: "A24U G50U G59A"
  ASSIGNED CLASS: "MET"

Could you verify whether the entry A17U U55A G84C C95G U148A shows polymerase ribozyme fitness (log ratio) of no less than -3?
NOT MET

# bool: polymerase ribozyme fitness (log ratio) of A16C G83C U146G U148C C149A >= -3
NOT MET

Hi, just wondering whether C51A G124A shows polymerase ribozyme fitness (log ratio) of -3 or higher.
MET

Check if polymerase ribozyme fitness (log ratio) >= -3 (inclusive). Item: C5G U6G U7G C14G A28C A30C G50C C51G A89G C93G G94U C105U C116U G143U
NOT MET

Decide: is the reported value of polymerase ribozyme fitness (log ratio) for A17U A29U C93A G141U equal to or greater than -3?
NOT MET

Determine whether this variant has polymerase ribozyme fitness (log ratio) no lower than -3: A21C C75G C96G C131G
NOT MET
